B1: Azoarcus group I ribozyme (parent)
chain: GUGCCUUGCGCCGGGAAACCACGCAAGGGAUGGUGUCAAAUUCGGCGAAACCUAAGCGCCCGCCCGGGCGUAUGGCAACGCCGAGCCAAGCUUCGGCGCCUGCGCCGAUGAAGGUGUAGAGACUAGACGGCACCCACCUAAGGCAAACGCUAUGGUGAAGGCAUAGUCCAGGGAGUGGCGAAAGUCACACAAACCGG

- Variants of: B1
- Experiment description: reverse-splicing fitness (ratio to wild type); higher = more active; in vitro selection; Mg2+ level not given
Would you mind labelling by reverse-splicing fitness? At or over 0.005 is T, under is F.

• C82A A111G C150A C169G U176A = T

Continue with the next variant.
**Query** Reported reverse-splicing fitness at or above 0.005? C82G A111C A120U A145U C150A C169A
**Result** F
